// values below are reported IC50
Biological target: Lp-PLA2 in human plasma (Homo sapiens)
Construct: from tissue; host or cells: pooled human plasma
Sequence (Q13093 22-441): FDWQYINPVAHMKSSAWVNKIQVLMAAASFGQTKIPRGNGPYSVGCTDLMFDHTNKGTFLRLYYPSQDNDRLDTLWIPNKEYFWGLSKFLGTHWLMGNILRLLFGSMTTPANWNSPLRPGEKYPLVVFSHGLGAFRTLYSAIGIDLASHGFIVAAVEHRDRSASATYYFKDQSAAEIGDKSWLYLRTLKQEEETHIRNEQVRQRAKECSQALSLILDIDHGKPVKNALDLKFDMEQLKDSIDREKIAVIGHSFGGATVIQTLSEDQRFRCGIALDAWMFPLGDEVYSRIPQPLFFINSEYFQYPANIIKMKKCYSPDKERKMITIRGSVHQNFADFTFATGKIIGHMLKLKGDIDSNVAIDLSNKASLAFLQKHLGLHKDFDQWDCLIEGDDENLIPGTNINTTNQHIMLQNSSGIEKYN
Assay: Lp-PLA2 human plasma assay (Thio-PAF assay)
Format: biochemical
Settings: pooled human plasma; read-out: pIC50 values in the thio-PAF assay (converted)
Counter-ions that a name gives are not always drawn.

Consider the reported IC50 for these compounds:
Please provide the recorded IC50 for CN1CCCn2c1cc(OCc1ccc(Oc3cccc(F)c3)c(F)c1)nc2=O [Example 25] , tested on Lp-PLA2 in human plasma (Homo sapiens).
≤ 1000 nM

Please provide the recorded IC50 for N#Cc1cc(COc2cc3n(c(=O)n2)CCCN3)ccc1Oc1ccc(C(F)(F)F)cn1 [Example 92] , tested on Lp-PLA2 in human plasma (Homo sapiens).
≤ 100 nM

Please provide the recorded IC50 for CN1CCCn2c1cc(NCCc1ccc(Oc3ccc(Cl)c(C(F)(F)F)c3)cc1)nc2=O [Example 9, trifluoroacetic acid salt] , tested on Lp-PLA2 in human plasma (Homo sapiens).
≤ 1000 nM

Please provide the recorded IC50 for CN1CCCn2c1cc(OCc1ccc(Oc3cccc(C(F)(F)F)n3)c(F)c1)nc2=O [Example 32] , tested on Lp-PLA2 in human plasma (Homo sapiens).
≤ 1000 nM

Please provide the recorded IC50 for CN1CCCn2c1cc(OCCc1ccc(Oc3ccc(C(F)(F)F)c(Cl)c3)cn1)nc2=O [Example 54] , tested on Lp-PLA2 in human plasma (Homo sapiens).
≤ 1000 nM

Others:
Please provide the recorded IC50 for CN1CCCn2c1cc(OCc1cc(F)c(F)c(F)c1)nc2=O [Example 21] , tested on Lp-PLA2 in human plasma (Homo sapiens).
≤ 100 nM

Please provide the recorded IC50 for CN1CCCn2c1cc(OCc1ccc(Oc3ccc(F)cc3)c(C#N)c1)nc2=O [Example 30] , tested on Lp-PLA2 in human plasma (Homo sapiens).
≤ 100 nM

Please provide the recorded IC50 for O=c1nc(OCc2cc(F)c(Oc3ccc(F)cc3)c(F)c2)cc2n1CCCN2 [Example 114] , tested on Lp-PLA2 in human plasma (Homo sapiens).
≤ 100 nM
